Test: yeast display, Sf9 membrane polyspecificity reagent, FACS + sequencing; frameworks hold sequencing errors
Property Label: polyreactivity (PSR sort gate)

Seq	polyreactivity (PSR sort gate)
QVQLVESGGGLVQAGGSLRLSCAASGRIFRKYAMGWYRQAPGTERELVATITLRGGSTYYADSVKGRFTISRDNGKNTVYLQMNSLKPEDTAVYYCATDITPAISVEYDYWGQGTQVTVSS	high polyreactivity
QVQLVESGGGLVQAGGSLRLSCAASGGIFGKYVMGWYRQAPGKERELVAGISRSAGITYYADSVKGRFTISRDNAKHTVYLQMNSLIPEDTAVYYCNARAWSYPSYHVGYDYWGQGTQVTVSS	high polyreactivity
QVQLVESGGGLVQAGGSLRLSCAASGFIFRYNAMGWYRQAPGKERELVAVITSGDNTYYADSVKGRFTISRDNAKNTVYLQMNSLKPEDTAVYYCAARYRHYFVRGGYWGQGTQVTVSS	high polyreactivity
QVQLVESGGGLVQAGGSLRLSCAASGSIFYSNAMGWYRQAPGKERELVADISWSDGSTYYADSVKGRFTISRDNAKNNVYLQMNSLKPEDTEVYYCARKAGYSYFRRYDYWGQGTQVTVSS	low polyreactivity

query: Using the record for QVQLVESAGGLVQAGGSLRLSCAASGSTFGENAMGWYRQAPGKERELVAAISDSGGDTYYADSVKGRFTISRDNAKYTVYLQMNSLKPEDTAVYYCAADRYGYWYAYYSWGQGTLVTVSS , report its polyreactivity (PSR sort gate).
result: low polyreactivity
